Each recorded value in this set is attributed to ChEMBL document CHEMBL5154710.

For each entry below, report its ΔTm value.
- Organism: Homo sapiens
- procedure summary: Stabilization of human LDH-Htr expressed in Escherichia coli assessed as change in melting temperature at 1 mM heated for 3 mins by NanoDSF assay
Give your result in °C as a bare value.

The compound identified as `O=C(O)c1ccccc1Nc1cccc(C(F)(F)F)c1` registered its ΔTm at 1.9

get_value(item= `CNCCCC12CCC(c3ccccc31)c1ccccc12` , readout=ΔTm) returns 4.6

ΔTm for `O=C(O)c1cc(-c2ccc(F)cc2F)ccc1O` is 3.1

Short answer for `Nc1nc2ccccc2n1Cc1ccc(F)cc1` : ΔTm was 0.8

---

- procedure summary: Destabilization of Red-dye-NHS fluorescent-labeled human LDH-5 expressed in Escherichia coli assessed as dissociation constant by MST assay
value kind: Kd (µM)
# unit: µM | format: bare number

Lab book: Kd of `Nc1nc2ccccc2n1Cc1ccc(F)cc1` noted as 324

Value of Kd reported for the molecule O=C(O)c1cc(-c2ccc(F)cc2F)ccc1O [DIFLUNISAL] is 343

---

For each of the molecules below, state its ΔTm.
- Organism: Homo sapiens
- procedure summary: Destabilization of human LDH-1expressed in Escherichia coli assessed as change in melting temperature at 1 mM heated for 3 mins by NanoDSF assay
Write down the numeric answer in °C and omit the unit.

GET /value?item= `O=C(O)c1ccccc1Nc1cccc(C(F)(F)F)c1` &field=ΔTm returns 0.4

# ΔTm of `O=C(O)c1cc(-c2ccc(F)cc2F)ccc1O` = 0.1

Noted for `CNCCCC12CCC(c3ccccc31)c1ccccc12` : its ΔTm reads -1.4

Reported ΔTm ( `Nc1nc2ccccc2n1Cc1ccc(F)cc1` ) = 0.4

---

For each record, write down the corresponding ΔTm.
- Organism: Homo sapiens
- procedure summary: Destabilization of human LDH-5 expressed in Escherichia coli assessed as change in melting temperature at 1 mM heated for 3 mins by NanoDSF assay
The response must be a number in °C with no trailing unit.

# compound `CNCCCC12CCC(c3ccccc31)c1ccccc12` ; its ΔTm = -2.7

Noted for `Nc1nc2ccccc2n1Cc1ccc(F)cc1` : its ΔTm reads -2.6

get_value(item= `O=C(O)c1cc(-c2ccc(F)cc2F)ccc1O` , readout=ΔTm) returns -2.1

For record `O=C(O)c1ccccc1Nc1cccc(C(F)(F)F)c1` the listed ΔTm is -1.7
